Provenance of the data: the supplement of paper PMC10567573

B1: FCHO1 (parent)
chain: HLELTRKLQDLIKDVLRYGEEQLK

- Variants of: B1
- TEST METHOD NOTES: protein stability index of a GFP-peptide fusion (GPS, HEK-293T) (PSI 1-6); higher = more stable;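 further: lentivirally expressed fusions sorted by FACS into six bins by GFP to DsRed ratio, PSI derived from sequencing read proportions per bin multiplied by bin number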
- ASSAY CONDITIONS: c terminus: a fixed tail appended
Rule: protein stability index under 2 gives NO, otherwise YES.

>  <MUTANT DESIGNATION>
Q9F

>  <LABEL CLASS>
YES

$$$$
>  <MUTANT DESIGNATION>
L16R

>  <LABEL CLASS>
NO

$$$$
>  <MUTANT DESIGNATION>
Q22H

>  <LABEL CLASS>
YES

$$$$
>  <MUTANT DESIGNATION>
L4T

>  <LABEL CLASS>
NO

$$$$
>  <MUTANT DESIGNATION>
L2K

>  <LABEL CLASS>
YES

$$$$
>  <MUTANT DESIGNATION>
R6E

>  <LABEL CLASS>
NO

$$$$
>  <MUTANT DESIGNATION>
L23I

>  <LABEL CLASS>
YES

$$$$
>  <MUTANT DESIGNATION>
H1K

>  <LABEL CLASS>
NO

$$$$
>  <MUTANT DESIGNATION>
E21Y

>  <LABEL CLASS>
YES

$$$$
>  <MUTANT DESIGNATION>
L23F

>  <LABEL CLASS>
YES

$$$$

Quick check: does D10W have protein stability index greater than or equal to 2?
YES

Given the entry K13I , answer whether its protein stability index meets or surpasses 2.
YES

Identify whether the reported protein stability index of the following variant is 2 or greater: Q22Y
YES

Answer whether protein stability index of V15A is greater than or equal to 2.
YES

Decide: protein stability index of L8S >= 2?
YES

Is protein stability index at least 2? Consider Y18K
YES

Could you please find out whether Q22A has protein stability index that meets 2 or exceeds it?
NO

Could you tell me if the measured protein stability index of E20M reaches 2 or more?
YES

Test whether the variant E3A records protein stability index of 2 or higher.
YES

Decide: protein stability index of L16W >= 2?
YES

Does protein stability index meet or surpass 2 for E3Q ?
YES

I'd appreciate it if you could say whether Y18D has protein stability index at least equal to 2.
YES

Can V15I be said to have protein stability index at or above 2?
YES

Please tell me: is the variant Q9H at or over 2 in terms of protein stability index?
NO

Does protein stability index meet or surpass 2 for H1R ?
YES

Determine whether measured protein stability index meets or exceeds 2 for L23Y
YES

Given the entry K13F , answer whether its protein stability index meets or surpasses 2.
NO

# check: protein stability index of E3W is greater than or equal to 2
YES

Given the entry Q22I , answer whether its protein stability index meets or surpasses 2.
YES

// inclusive: protein stability index at least 2? input: Y18A
YES

Identify whether the reported protein stability index of the following variant is 2 or greater: L11T
NO
